# Tested on: KM12 colon
# assay.text: NCI tumour cell line growth inhibition, 48 h
Where a SMILES comes first, the peptide text is derived from it. [ ]: non-standard residue; d: D form. The star is where a group is joined. mTyr = N[CH](Cc1cccc(O)c1)C(=O)O; Cbz = O=C(OCc1ccccc1)*; OBn = c1ccc(CO*)cc1
readout.name: TGI

Identify measured TGI associated with COC(=O)C(Cc1cccc(O)c1)NC(=O)C(CC(=O)OCc1ccccc1)NC(=O)OCc1ccccc1 (centres undefined) (Cbz-Asp(OBn)-[mTyr]-OMe; configuration not given here) > 100 µM

Look up and state reported TGI for CSCCC(NC(=O)Cc1ccc(C(=O)c2ccccc2)cc1)C(=O)O (centres undefined) > 100 µM

Respond only with TGI recorded for CCN(Cc1ccc(Cl)s1)c1ccc(CO)c(Cl)c1 31.6 µM

Find the measured TGI of O=C1NC(=O)C(c2cccc(Cl)c2)=C1Nc1ccc(O)c(Cl)c1 and report it. > 25 µM

Provide one value: measured TGI of O=C(Nc1cccc(F)c1)c1cc2ccc(O)cc2oc1=Nc1ccccc1F 22.4 µM

Provide only the value of recorded TGI for CC1=CC(=O)C(O)C2(C)C1CC(O)C13COC4(C)C(OC(=O)C41)C(O)C23 (centres undefined) 33.6 µM

Tell me its TGI given CC1(C)OC2C(=O)C=C(COCc3ccccc3)C2O1 (centres undefined) as the entry. 51.1 µM

Supply reported TGI belonging to this compound: CC1CN1c1c(C(=O)/C=C/c2ccccc2)c(-c2ccccc2)nn(C)c1=O (centres undefined) 44.2 µM

Output measured TGI for this item: O=C1C[C@@H](c2ccccc2)O[C@@H](c2ccccc2)C1 > 100 µM

Output measured TGI for this item: CC1(O)OC(=O)C2=C1CCC1C2CCC2(C)C(O)CCC12 (centres undefined) > 100 µM

Output measured TGI for this item: CC1OC(OC2C(OC(=O)[C@@H]3CC(C)(C)C[C@H]4C5=CC[C@@H]6[C@@]7(C)C[C@H](O)[C@H](OC8OC(CO)C(O)C(O)C8O)[C@@](C)(CO)[C@@H]7[C@H](O)C[C@@]6(C)[C@]5(C)CC[C@@]34C)OCC(O)C2O)C(O)C(O)C1O (some centres undefined) > 7.5 µM

Please list TGI recorded for the compound O[C@H]1[C@H](O)[C@@H](O)[C@@]2(O)C[C@@H](O)[C@@H]1N2 > 100 µM

Determine from records and report TGI for COC(=O)C(C)(C)N=CN(C)C > 100 µM

Item Nc1ccc(C(=O)NN2C(=O)C(Cl)C2c2ccccc2)cc1 (centres undefined) : provide TGI > 100 µM
